Where these numbers come from: patent US20210363269A1

The entries below come with measured koff values attached.
TEST SYSTEM: T1, BALB/c mouse SIRP-α D1 domain (mouse (BALB/c strain))
T1 chain: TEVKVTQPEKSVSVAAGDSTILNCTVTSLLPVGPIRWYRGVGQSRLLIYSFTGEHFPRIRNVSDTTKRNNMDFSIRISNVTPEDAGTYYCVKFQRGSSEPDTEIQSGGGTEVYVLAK
ASSAY DETAILS: SPR, ProteOn, antibody on chip
Dear colleague, please return just the value in s⁻¹, with no unit written.

# count of solved cases: 3
AB21c (antibody, mouse IgG2a, V domains shown, Full-length mouse IgG2a) VH: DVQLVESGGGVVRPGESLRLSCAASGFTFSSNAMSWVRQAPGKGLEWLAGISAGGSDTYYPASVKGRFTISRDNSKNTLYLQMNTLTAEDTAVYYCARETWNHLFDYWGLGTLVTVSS VL: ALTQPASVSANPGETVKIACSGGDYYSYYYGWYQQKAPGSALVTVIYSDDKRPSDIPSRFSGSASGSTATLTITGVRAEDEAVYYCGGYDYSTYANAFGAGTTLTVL | 0.000618
AB66c (antibody, mouse IgG2a, V domains shown, Full-length mouse IgG2a) VH: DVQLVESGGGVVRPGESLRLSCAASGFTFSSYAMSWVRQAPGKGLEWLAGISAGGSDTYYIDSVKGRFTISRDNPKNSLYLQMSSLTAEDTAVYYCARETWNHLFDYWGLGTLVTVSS VL: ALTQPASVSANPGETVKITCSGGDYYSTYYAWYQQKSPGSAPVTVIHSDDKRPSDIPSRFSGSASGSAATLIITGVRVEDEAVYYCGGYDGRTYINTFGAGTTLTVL | 0.000762
AB27c (antibody, mouse IgG2a, V domains shown, Full-length mouse IgG2a) VH: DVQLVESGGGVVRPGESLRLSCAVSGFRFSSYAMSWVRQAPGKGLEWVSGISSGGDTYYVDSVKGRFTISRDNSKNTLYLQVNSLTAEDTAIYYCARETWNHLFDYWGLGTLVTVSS VL: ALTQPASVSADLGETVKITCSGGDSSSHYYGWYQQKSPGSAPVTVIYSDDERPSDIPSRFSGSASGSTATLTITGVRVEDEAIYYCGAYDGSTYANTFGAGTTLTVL | 0.00226

Shifting focus to the binder that follows.
Ask | Using the record for AB3c (antibody, mouse IgG2a, V domains shown, Full-length mouse IgG2a) VH: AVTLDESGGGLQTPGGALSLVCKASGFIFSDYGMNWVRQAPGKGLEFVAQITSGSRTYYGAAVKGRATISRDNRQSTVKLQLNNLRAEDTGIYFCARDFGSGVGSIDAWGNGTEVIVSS VL: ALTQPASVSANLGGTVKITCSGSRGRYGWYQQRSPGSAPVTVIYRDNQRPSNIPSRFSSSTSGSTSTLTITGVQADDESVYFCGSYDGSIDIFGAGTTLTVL , report its koff.
Reply | 0.00412
